ASSAY PROCEDURE: Cytotoxicity against Chinese hamster DNA-PK deficient V3 cells assessed as cell survival at 0.5 umol/L measured after 16 hrs by crystal violet staining based assay relative to control
Assay type: toxicity, Cricetulus griseus
CONDITION INFO: dose 0.5 µmol/L, read-out: Activity
PROPERTY NAME: viability at 16 h, 0.5 µM (%)
Your answer should be a plain number; it is taken to be in %.

Ask: Entry `O=c1cc(N2CCOCC2)oc2c(-c3cccc4c3sc3ccccc34)cccc12` : reported viability at 16 h, 0.5 µM = ?
Result: 94

---

ASSAY PROCEDURE: Elimination half life in BALB/c mouse at 5 mg/kg, iv by HPLC analysis
Assay type: ADME, organism-based
CONDITION INFO: in vivo, read-out: beta t1/2
PROPERTY NAME: half-life (min)
Your answer should be a plain number; it is taken to be in min.

Ask: Entry `O=c1cc(N2CCOCC2)oc2c(-c3cccc4c3sc3ccccc34)cccc12` : reported half-life = ?
Result: 46

---

ASSAY PROCEDURE: Ratio of drug level in kidney to plasma of human SW620 cell xenografted athymic nude CD1 mouse at 10 mg/kg, ip measured after 90 mins by HPLC analysis
Format: ADME, organism-based
PROPERTY NAME: Kp at 1.5 h
Respond with the number and no other words.

Ask: Entry `O=c1cc(N2CCOCC2)oc2c(-c3cccc4c3sc3ccccc34)cccc12` : reported Kp at 1.5 h = ?
Result: 14

---

ASSAY PROCEDURE: Ratio of drug level in kidney to plasma of human SW620 cell xenografted athymic nude CD1 mouse at 10 mg/kg, ip measured after 240 mins by HPLC analysis
Assay type: ADME, organism-based
PROPERTY NAME: Kp at 4 h
Respond with the number and no other words.

Ask: Entry `O=c1cc(N2CCOCC2)oc2c(-c3cccc4c3sc3ccccc34)cccc12` : reported Kp at 4 h = ?
Result: 1

---

ASSAY PROCEDURE: AUClast in BALB/c mouse at 10 mg/kg, ip by HPLC analysis
Assay type: ADME, organism-based
CONDITION INFO: in vivo
PROPERTY NAME: AUC(0-t) (ng·h/mL)
Your answer should be a plain number; it is taken to be in ng·h/mL.

Ask: Entry `O=c1cc(N2CCOCC2)oc2c(-c3cccc4c3sc3ccccc34)cccc12` : reported AUC(0-t) = ?
Result: 2500

---

ASSAY PROCEDURE: Ratio of drug level in brain to plasma of human SW620 cell xenografted athymic nude CD1 mouse at 10 mg/kg, ip measured after 30 mins by HPLC analysis
Format: ADME, organism-based
CONDITION INFO: brain and plasma, read-out: BPR
PROPERTY NAME: Kp at 0.5 h
Respond with the number and no other words.

Ask: Entry `O=c1cc(N2CCOCC2)oc2c(-c3cccc4c3sc3ccccc34)cccc12` : reported Kp at 0.5 h = ?
Result: 2.2

---

ASSAY PROCEDURE: Ratio of drug level in brain to plasma of human SW620 cell xenografted athymic nude CD1 mouse at 10 mg/kg, ip measured after 240 mins by HPLC analysis
Assay type: ADME, organism-based
CONDITION INFO: brain and plasma, read-out: BPR
PROPERTY NAME: Kp at 4 h

Ask: Entry `O=c1cc(N2CCOCC2)oc2c(-c3cccc4c3sc3ccccc34)cccc12` : reported Kp at 4 h = ?
Result: 6.2
